Reported pIC50 values for a set of compounds
Target: Muscarinic acetylcholine receptor M2 (Homo sapiens, UniProt P08172)
Sequence (P08172 whole entry): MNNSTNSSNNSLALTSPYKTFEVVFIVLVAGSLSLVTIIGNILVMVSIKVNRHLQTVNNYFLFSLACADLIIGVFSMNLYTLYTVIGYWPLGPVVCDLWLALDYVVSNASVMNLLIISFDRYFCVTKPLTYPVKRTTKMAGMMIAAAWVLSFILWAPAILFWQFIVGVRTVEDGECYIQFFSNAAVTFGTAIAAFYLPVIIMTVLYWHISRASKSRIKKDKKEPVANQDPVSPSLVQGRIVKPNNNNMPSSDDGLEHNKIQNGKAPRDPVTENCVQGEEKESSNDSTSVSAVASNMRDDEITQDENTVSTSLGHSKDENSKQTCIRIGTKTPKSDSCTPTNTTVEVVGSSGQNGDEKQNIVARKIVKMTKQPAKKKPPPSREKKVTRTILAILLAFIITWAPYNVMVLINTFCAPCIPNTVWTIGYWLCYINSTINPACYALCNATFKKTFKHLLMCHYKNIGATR
Assay: Inhibition of human muscarinic acetylcholine M2 receptor expressed in CHO cells co-expressing Gqi5 in the presence of acetylcholine at EC80 concentration by calcium mobilization assay
Assay type: functional, cell-based
pIC50 is a log-scale quantity: -log10 of the concentration expressed in molar.

{"Smiles Text": "Cn1cc2cc(-c3ccc(NC[C@@H]4CC45CCN(CC4CCOCC4)CC5)nn3)ccc2n1", "pIC50": 5.21}
{"Smiles Text": "Fc1ccc(F)c(-c2ccc(NC[C@@H]3CC34CCN(CC3CCOCC3)CC4)nn2)c1", "pIC50": 5.59}
{"Smiles Text": "[2H]C([2H])(C1CCOCC1)N1CCC2(CC1)C[C@H]2CNc1ccc(-c2cc(F)cc(F)c2F)nn1", "pIC50": 5.52}
{"Smiles Text": "Fc1cc(F)c(F)c(-c2ccc(NC[C@@H]3CC34CCN(CC3CCOCC3)CC4)nn2)c1", "pIC50": 5.74}

Kindly consider the entry below.
# compound Fc1ccc(Cl)c(-c2ccc(NC[C@@H]3CC34CCN(CC3CCOCC3)CC4)nn2)c1 ; its pIC50 = 5.80
